- testedTarget: T1, CD226 (UniProt Q15762 19-336)
- T1 construct: whole, on cells
- T1 sequence (looked up): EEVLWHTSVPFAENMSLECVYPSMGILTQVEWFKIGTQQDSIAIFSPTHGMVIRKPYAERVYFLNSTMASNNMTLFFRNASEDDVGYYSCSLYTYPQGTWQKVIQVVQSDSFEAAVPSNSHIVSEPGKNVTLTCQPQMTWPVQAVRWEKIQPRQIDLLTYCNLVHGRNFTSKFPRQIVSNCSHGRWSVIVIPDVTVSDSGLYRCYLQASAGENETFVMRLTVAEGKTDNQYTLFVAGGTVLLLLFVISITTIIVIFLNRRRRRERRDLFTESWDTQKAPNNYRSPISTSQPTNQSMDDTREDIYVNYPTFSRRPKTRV
- experiment: flow cytometry on cells expressing CD226, Fc fusion at 100 nM
Please enter Y where MFI at 100 nM is greater than or equal to 2000 MFI, and N where it is lower.

See these solved cases before continuing.
binder	assignedLabel
CD155 T45Q/S52Q variant IgV-Fc fusion (Fc fusion, not shown: a dimerising Fc or GST) WPPPGTGDVVVQAPTQVPGFLGDSVTLPCYLQVPNMEVTHVSQLQWARHGEQGSMAVFHQTQGPSYSESKRLEFVAARLGAELRNASLRMFGLRVEDEGNYTCLFVTFPQGSRSVDIWLRVL	Y
CD155 S42G/S52L/Q62F/L104Q variant IgV-Fc fusion (Fc fusion, not shown: a dimerising Fc or GST) WPPPGTGDVVVQAPTQVPGFLGDSVTLPCYLQVPNMEVTHVGQLTWARHGELGSMAVFHQTFGPSYSESKRLEFVAARLGAELRNASLRMFGLRVEDEGNYTCQFVTFPQGSRSVDIWLRVL	Y
CD155 S42V/S52E variant IgV-Fc fusion (Fc fusion, not shown: a dimerising Fc or GST) WPPPGTGDVVVQAPTQVPGFLGDSVTLPCYLQVPNMEVTHVVQLTWARHGEEGSMAVFHQTQGPSYSESKRLEFVAARLGAELRNASLRMFGLRVEDEGNYTCLFVTFPQGSRSVDIWLRVL	Y
CD155 S42C/S52M/Q62F variant IgV-Fc fusion (Fc fusion, not shown: a dimerising Fc or GST) WPPPGTGDVVVQAPTQVPGFLGDSVTLPCYLQVPNMEVTHVCQLTWARHGEMGSMAVFHQTFGPSYSESKRLEFVAARLGAELRNASLRMFGLRVEDEGNYTCLFVTFPQGSRSVDIWLRVL	Y
CD155 S42N/S52E/V57L/L104E variant IgV-Fc fusion (Fc fusion, not shown: a dimerising Fc or GST) WPPPGTGDVVVQAPTQVPGFLGDSVTLPCYLQVPNMEVTHVNQLTWARHGEEGSMALFHQTQGPSYSESKRLEFVAARLGAELRNASLRMFGLRVEDEGNYTCEFVTFPQGSRSVDIWLRVL	N

Request: I'd appreciate it if you could say whether CD155 S42N variant IgV-Fc fusion (Fc fusion, not shown: a dimerising Fc or GST) WPPPGTGDVVVQAPTQVPGFLGDSVTLPCYLQVPNMEVTHVNQLTWARHGESGSMAVFHQTQGPSYSESKRLEFVAARLGAELRNASLRMFGLRVEDEGNYTCLFVTFPQGSRSVDIWLRVL has MFI at 100 nM at least equal to 2000 MFI.
Result: N

Request: MFI at 100 nM >= 2000 MFI for CD155 S42A variant IgV-Fc fusion (Fc fusion, not shown: a dimerising Fc or GST) WPPPGTGDVVVQAPTQVPGFLGDSVTLPCYLQVPNMEVTHVAQLTWARHGESGSMAVFHQTQGPSYSESKRLEFVAARLGAELRNASLRMFGLRVEDEGNYTCLFVTFPQGSRSVDIWLRVL ?
Result: Y
